Origin of measurements: the Immune Epitope Database (IEDB)

- Target Desc: HLA-A*23:01
- Experiment Description: IEDB peptide-MHC binding, purified MHC/direct/fluorescence; filed as Kd, often an IC50 or EC50 that approximates it; bounds were set here for any values at or beyond the usual limits of such assays
- Protocol Conditions: source organism: Bacillus cereus NVH0597-99
pKd: −log10 of the molar value.
Reported Metric: pKd

Memo: ITMYVAFEQ , reported pKd: ≤ 4.70

* * *

- Target Desc: HLA-B*07:02
- Experiment Description: IEDB peptide-MHC binding, purified MHC/competitive/radioactivity; filed as Kd, often an IC50 or EC50 that approximates it; bounds were set here for any values at or beyond the usual limits of such assays
- Protocol Conditions: source organism: Vaccinia virus WR
Reported Metric: pKd
To interpret pKd, take it as minus log10 of a concentration measured in moles per litre.

Sample answers from the record:
{"Input Sequence": "RPSIGNVFKA", "Target Desc": "HLA-B*07:02", "Reported Metric": "pKd", "Measured Result": 5.42}
{"Input Sequence": "SPMVIATTDM", "Target Desc": "HLA-B*07:02", "Reported Metric": "pKd", "Measured Result": 7.67}
{"Input Sequence": "RPDTRHLRVL", "Target Desc": "HLA-B*07:02", "Reported Metric": "pKd", "Measured Result": 7.93}

Next up:
Memo: VPVLEKKVCA , reported pKd: 5.52
